Subject of test: recombinant human ALK5 (TGF-βR1) protein (Homo sapiens)
Construct: purchased Life Technologies PR9075A
Sequence (P36897 34-503): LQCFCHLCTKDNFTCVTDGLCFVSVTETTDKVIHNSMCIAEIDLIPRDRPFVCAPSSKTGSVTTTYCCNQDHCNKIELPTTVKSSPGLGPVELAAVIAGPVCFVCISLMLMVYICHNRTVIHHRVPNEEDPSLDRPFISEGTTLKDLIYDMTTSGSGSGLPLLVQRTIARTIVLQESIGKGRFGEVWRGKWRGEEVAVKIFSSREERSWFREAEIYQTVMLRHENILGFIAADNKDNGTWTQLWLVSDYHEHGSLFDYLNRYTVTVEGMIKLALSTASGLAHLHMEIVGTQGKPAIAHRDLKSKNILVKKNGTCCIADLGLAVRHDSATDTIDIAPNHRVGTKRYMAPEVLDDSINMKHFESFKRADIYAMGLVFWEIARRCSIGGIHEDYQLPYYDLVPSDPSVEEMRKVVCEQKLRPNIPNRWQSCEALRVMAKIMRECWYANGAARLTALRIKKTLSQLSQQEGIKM
Experimental details: Biochemical ALK5 (TGF-βR1) assay to measure pKi (LANCE Ultra ULight kinase assay)
Experimental context: apparent pKi, converted from pIC50 using the Cheng-Prusoff equation
Give measured Ki for each item. Keep answers brief.

Lookup: Identify the measured Ki of `CC(C)NCCn1cc(-c2cnc3ccc(-c4c[nH]nc4-c4cc(Cl)ccc4F)nc3c2)cn1` for recombinant human ALK5 (TGF-βR1) protein (Homo sapiens).
Found: ≤ 0.0316 nM

Lookup: Identify the measured Ki of NC(=O)C1CN(c2cnc3ccc(-c4c[nH]nc4-c4cc(Cl)ccc4F)nc3c2)CCN1 (racemic) for recombinant human ALK5 (TGF-βR1) protein (Homo sapiens).
Found: 0.398 to 3.16 nM

Lookup: Identify the measured Ki of `Fc1ccc(Cl)cc1-c1[nH]nnc1-c1ccc2ncc(N3CCCNCC3)cc2c1` for recombinant human ALK5 (TGF-βR1) protein (Homo sapiens).
Found: 3.98 to 31.6 nM

Lookup: Identify the measured Ki of CNC(=O)C1CN(c2cnc3ccc(-c4c[nH]nc4-c4cc(Cl)c(F)cc4F)nc3c2)CCN1 (racemic) for recombinant human ALK5 (TGF-βR1) protein (Homo sapiens).
Found: 0.0398 to 0.316 nM

Lookup: Identify the measured Ki of `COC(=O)c1cnc2ccc(-c3c(-c4cc(Cl)ccc4F)nnn3Cc3ccccc3)nc2c1` for recombinant human ALK5 (TGF-βR1) protein (Homo sapiens).
Found: 3.98 to 31.6 nM

Lookup: Identify the measured Ki of `CC(C)N1CCN(CCNc2cnc3ccc(-c4nc[nH]c4-c4cccc(Cl)c4)nc3c2)CC1` for recombinant human ALK5 (TGF-βR1) protein (Homo sapiens).
Found: 0.398 to 3.16 nM

Lookup: Identify the measured Ki of `Fc1ccc(Cl)cc1-c1n[nH]cc1-c1ccc2ncc(NCCN3CCC3)cc2n1` for recombinant human ALK5 (TGF-βR1) protein (Homo sapiens).
Found: 0.0398 to 0.316 nM

Lookup: Identify the measured Ki of `NCCN1CCN(c2cnc3ccc(-c4c[nH]nc4-c4cc(Cl)c(F)cc4F)nc3c2)CC1` for recombinant human ALK5 (TGF-βR1) protein (Homo sapiens).
Found: 0.0398 to 0.316 nM

Lookup: Identify the measured Ki of `Fc1ccc(Cl)cc1-c1[nH]cnc1-c1ccc2ncc(-c3nnn4c3CNCC4)cc2c1` for recombinant human ALK5 (TGF-βR1) protein (Homo sapiens).
Found: 0.398 to 3.16 nM

Lookup: Identify the measured Ki of `COCc1cccc(-c2n[nH]cc2-c2ccc3ncc(-c4cn[nH]c4)cc3n2)c1` for recombinant human ALK5 (TGF-βR1) protein (Homo sapiens).
Found: 0.398 to 3.16 nM

Lookup: Identify the measured Ki of `Cn1cccc(-c2cnc3ccc(-c4c[nH]nc4-c4cc(Cl)ccc4F)nc3c2)c1=O` for recombinant human ALK5 (TGF-βR1) protein (Homo sapiens).
Found: 0.0398 to 0.316 nM

Lookup: Identify the measured Ki of `Fc1ccc(Cl)cc1-c1[nH]cnc1-c1ccc2ncc(-c3cnc4n3CCNC4)cc2c1` for recombinant human ALK5 (TGF-βR1) protein (Homo sapiens).
Found: 0.398 to 3.16 nM

Lookup: Identify the measured Ki of `CN1CC=C(c2nc3n(n2)CCN(c2cnc4ccc(-c5nc[nH]c5-c5cc(Cl)ccc5F)nc4c2)C3)C1` for recombinant human ALK5 (TGF-βR1) protein (Homo sapiens).
Found: ≤ 0.0316 nM

Lookup: Identify the measured Ki of `Fc1cc(F)c(-c2n[nH]cc2-c2ccc3ncc(NC[C@H]4CCCCN4)cc3n2)cc1Cl` for recombinant human ALK5 (TGF-βR1) protein (Homo sapiens).
Found: 0.398 to 3.16 nM

Lookup: Identify the measured Ki of `NCCn1cc(-c2cnc3ccc(-c4nc[nH]c4-c4cc(Cl)c(F)cc4F)nc3c2)cn1` for recombinant human ALK5 (TGF-βR1) protein (Homo sapiens).
Found: 0.0398 to 0.316 nM

Lookup: Identify the measured Ki of `Fc1ccc(Cl)cc1-c1n[nH]cc1-c1ccc2ncc(-c3[nH]nc4c3CCN4)cc2n1` for recombinant human ALK5 (TGF-βR1) protein (Homo sapiens).
Found: 0.0398 to 0.316 nM

Lookup: Identify the measured Ki of NC1CCN(c2cnc3ccc(-c4c[nH]nc4-c4ccccc4F)nc3c2)C1 (stereo not shown) for recombinant human ALK5 (TGF-βR1) protein (Homo sapiens).
Found: 0.398 to 3.16 nM

Lookup: Identify the measured Ki of `CNC1CCN(c2cnc3ccc(-c4c(-c5cc(Cl)ccc5F)[nH]c5cccnc45)nc3c2)CC1` for recombinant human ALK5 (TGF-βR1) protein (Homo sapiens).
Found: 3.98 to 31.6 nM

Lookup: Identify the measured Ki of `Fc1ccc(Cl)cc1-c1nc2ccccn2c1-c1ccc2ncc(-c3nnn4c3CNCC4)cc2n1` for recombinant human ALK5 (TGF-βR1) protein (Homo sapiens).
Found: 0.0398 to 0.316 nM

Lookup: Identify the measured Ki of `Fc1ccc(Cl)cc1-c1[nH]cnc1-c1ccc2ncc(N3CCCNCC3)cc2c1` for recombinant human ALK5 (TGF-βR1) protein (Homo sapiens).
Found: 0.398 to 3.16 nM

Lookup: Identify the measured Ki of O=C(O)CC1CN(c2cnc3ccc(-c4nc[nH]c4-c4cccc(Cl)c4)nc3c2)CCN1 (stereo not shown) for recombinant human ALK5 (TGF-βR1) protein (Homo sapiens).
Found: 0.398 to 3.16 nM

Lookup: Identify the measured Ki of `Fc1cc(F)c(-c2n[nH]cc2-c2ccc3ncccc3n2)cc1Cl` for recombinant human ALK5 (TGF-βR1) protein (Homo sapiens).
Found: 0.398 to 3.16 nM

Lookup: Identify the measured Ki of Fc1ccc(Cl)cc1-c1n[nH]cc1-c1ccc2ncc(N3CC4CNCC43)cc2n1 (stereo not shown) for recombinant human ALK5 (TGF-βR1) protein (Homo sapiens).
Found: 0.398 to 3.16 nM

Lookup: Identify the measured Ki of `Fc1ccc(Cl)cc1-c1nc2ccccn2c1-c1ccc2ncc(N3CCNCC3)cc2c1` for recombinant human ALK5 (TGF-βR1) protein (Homo sapiens).
Found: 0.0398 to 0.316 nM

Lookup: Identify the measured Ki of `CN1CC=C(c2nc3n(n2)CCN(c2cnc4ccc(-c5c[nH]nc5-c5cc(Cl)ccc5F)nc4c2)C3)C1` for recombinant human ALK5 (TGF-βR1) protein (Homo sapiens).
Found: ≤ 0.0316 nM

Lookup: Identify the measured Ki of `CNCCn1cc(-c2cnc3ccc(-c4c[nH]nc4-c4cccc(COC)c4)nc3c2)cn1` for recombinant human ALK5 (TGF-βR1) protein (Homo sapiens).
Found: 0.0398 to 0.316 nM

Lookup: Identify the measured Ki of `CN1CCN(C2CCN(c3cnc4ccc(-c5c[nH]nc5-c5cc(Cl)ccc5F)nc4c3)CC2)CC1` for recombinant human ALK5 (TGF-βR1) protein (Homo sapiens).
Found: ≤ 0.0316 nM

Lookup: Identify the measured Ki of `NC1CN(c2cnc3ccc(-c4c[nH]nc4-c4cc(Cl)ccc4F)nc3c2)C1` for recombinant human ALK5 (TGF-βR1) protein (Homo sapiens).
Found: 0.0398 to 0.316 nM

Lookup: Identify the measured Ki of `CNC1CCN(c2cnc3ccc(-c4c[nH]nc4-c4cc(Cl)c(F)cc4F)nc3c2)CC1` for recombinant human ALK5 (TGF-βR1) protein (Homo sapiens).
Found: 0.0398 to 0.316 nM

Lookup: Identify the measured Ki of `Fc1cc(F)c(-c2n[nH]cc2-c2ccc3ncc(-c4ncn5c4NCC5)cc3n2)cc1Cl` for recombinant human ALK5 (TGF-βR1) protein (Homo sapiens).
Found: 0.0398 to 0.316 nM

Lookup: Identify the measured Ki of `Fc1ccc(Cl)cc1-c1n[nH]cc1-c1ccc2ncc(N3CCn4nc(C5=CCNC5)nc4C3)cc2n1` for recombinant human ALK5 (TGF-βR1) protein (Homo sapiens).
Found: ≤ 0.0316 nM
